Consider the following compounds; for each one, report its degraded at 1.5 h.
- ASSAY SUMMARY: Stability of compound in TRIS buffer at pH 8 assessed as compound conversion in presence of DTT measured after 90 mins by LC-MS analysis
- Format: physicochemical
- EXPERIMENTAL SETUP: TRIS buffer with DTT, read-out: Drug metabolism
One number for each entry, in %.

Nc1ncnc2c1ncn2[C@@H]1O[C@H](CN(CC[C@H](N)C(=O)O)S(=O)(=O)c2ccc(Br)c([N+](=O)[O-])c2)[C@@H](O)[C@H]1O; 100

Turning now to a further compound:
Exercise: # get_value(readout='degraded at 1.5 h', item= `Nc1ncnc2c1ncn2[C@@H]1O[C@H](CN(CC[C@H](N)C(=O)O)S(=O)(=O)c2ccc(Cl)c([N+](=O)[O-])c2)[C@@H](O)[C@H]1O` )
Key: 100
